- Method notes: reversal of MRP1-mediated doxorubicin resistance, pilot screen, H69AR cells, doxorubicin co-treatment (AID 601)
- Cond: H69AR cells, CellTiter-Glo, 72 h; compound alone cytotoxicity; at 10 µM
Measured attribute: viability (%)
Just the number please, in %, no unit attached.

Use the examples below as a reference point.
COc1ccc(C(=O)Nc2ccc(C)cn2)c(OC)c1; 85.4
COc1ccc(C2CC(=O)c3cnc(NC(=O)c4ccccc4OC)nc3C2)c(OC)c1 (stereo unspecified); 87
CC(=O)N1CCc2cc(Br)cc(S(=O)(=O)NCCCN3CCCC(C)C3)c21 (stereo unspecified); 91.8

[ask] Bench note: what viability did C=CCN1C(=O)C2(c3ccccc31)C1CCCC=C1C(C#N)=C(N)C2(C#N)C#N (stereo unspecified) show?
[reply] 76.4

[ask] Proceed to Nc1ccc(-n2c(N)c(C(=O)NCc3ccc4c(c3)OCO4)c3nc4ccccc4nc32)cc1
[reply] 55.5

[ask] Proceed to COc1ccc(C(=O)Nc2ccc(S(=O)(=O)NC(C)=O)cc2)cc1
[reply] 93.1

[ask] Proceed to O=C(NCC(=O)N1CCC(N2CCCCC2)CC1)C1CCCCC1
[reply] 94.4

[ask] Proceed to Cc1nnc(SCC(=O)NCCN2C(=O)CSC2=O)s1
[reply] 98.3

[ask] Proceed to Cc1occc1-c1nnc(SCC(=O)N2CCc3ccccc32)o1
[reply] 3.12

[ask] Proceed to Cc1sc(NC(=O)CSc2nc(N)n(CC(=O)c3ccccc3)n2)c(C#N)c1C
[reply] 90.4

[ask] Proceed to O=S(c1ccsc1)c1ccsc1
[reply] 88.7

[ask] Proceed to CCOC(=O)N1CCC(N2C(=O)c3ccccc3C2Nc2ccc3c(C)cc(=O)oc3c2)CC1 (stereo unspecified)
[reply] 83.4

[ask] Proceed to CCOc1ccc(NC(=O)CSc2nnc(Cc3cccn3C)n2-c2ccc(OC)cc2)cc1
[reply] 90.6

[ask] Proceed to CCOC(=O)c1nnc(-c2ccccc2)o1
[reply] 88.1

[ask] Proceed to Cc1ccc(OC(=O)NC2CCS(=O)(=O)C2)cc1C (stereo unspecified)
[reply] 95.3

Origin of the recorded values: PubChem BioAssay
